target: furin, P09958; test: furin cleavage Z-score vs untreated control; higher = more cleavage, active = 3.5 or more, inactive = 1 or less, 8 variable residues between constant flanks; conditions: 15 min;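 also: purified furin at 1:10 enzyme:substrate in 50 mM HEPES pH 7.5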
Sequence (P09958 whole entry): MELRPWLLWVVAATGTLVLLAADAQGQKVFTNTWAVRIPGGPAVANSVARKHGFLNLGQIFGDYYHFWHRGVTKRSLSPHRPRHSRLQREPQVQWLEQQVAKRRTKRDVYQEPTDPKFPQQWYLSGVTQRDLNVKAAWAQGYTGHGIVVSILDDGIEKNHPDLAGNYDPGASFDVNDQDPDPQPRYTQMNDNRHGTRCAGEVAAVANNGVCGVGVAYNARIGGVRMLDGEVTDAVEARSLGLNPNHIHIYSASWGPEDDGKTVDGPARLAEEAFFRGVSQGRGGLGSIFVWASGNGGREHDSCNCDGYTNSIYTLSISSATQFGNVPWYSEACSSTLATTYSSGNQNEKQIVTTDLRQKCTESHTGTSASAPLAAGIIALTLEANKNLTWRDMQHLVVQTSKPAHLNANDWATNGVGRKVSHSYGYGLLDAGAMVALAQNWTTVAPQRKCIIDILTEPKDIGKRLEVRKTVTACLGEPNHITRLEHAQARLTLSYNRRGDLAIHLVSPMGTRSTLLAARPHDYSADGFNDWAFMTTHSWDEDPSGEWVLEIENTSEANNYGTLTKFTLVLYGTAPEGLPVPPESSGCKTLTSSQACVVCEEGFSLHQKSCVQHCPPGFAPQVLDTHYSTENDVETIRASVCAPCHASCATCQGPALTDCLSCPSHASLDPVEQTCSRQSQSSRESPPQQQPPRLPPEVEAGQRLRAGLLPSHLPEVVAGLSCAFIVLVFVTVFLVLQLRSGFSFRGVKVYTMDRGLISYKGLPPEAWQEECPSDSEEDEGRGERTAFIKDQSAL
Some of the results follow. The hit rate among all sequences tested is not known here.
Could you please report measured furin cleavage Z-score for the items listed next?
Give bare numbers.

Known results for sequences:
INSERT INTO assay_data (entry_sequence, observable, readout_number) VALUES
  ('CAGSSRRFRAAGNASASA [FS-1003]', 'furin cleavage Z-score', 1.3),
  ('CALRDIWDWIAGNASASA [HC1149]', 'furin cleavage Z-score', 1.9);

Next sequence, please.
Input line: Supply measured furin cleavage Z-score of CATRGERCDLAGNASASA [HC484] in your reply.
Output line: 1.25
